# System: Escherichia coli TOP10;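 note: peptides expressed intracellularly from a pBAD plasmid library in pooled LB shake-flask culture, induced with 0.3% L-arabinose, DNA abundance read by NGS, three biological replicates, DESeq2 with apeglm shrinkage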
# experiment: shrunken log2 fold change of peptide-encoding DNA abundance (4.5 h post-induction vs induction); higher = less antimicrobial activity (less host growth inhibition)
# conditionsUsed: time post-induction: 4.5 h; library: site-saturation at positions 5, 18, 19, 20

{"columns": ["sequenceContent", "targetUnderTest", "shrunken log2 fold change"],
 "data": [
  ["RRIRMRPPRLPRPRPRPKVGPRP", "Escherichia coli TOP10", 1.27],
  ["RRIRDRPPRLPRPRPRPFPMPRP", "Escherichia coli TOP10", -0.0572],
  ["RRIRCRPPRLPRPRPRPTYSPRP", "Escherichia coli TOP10", -1.01],
  ["RRIRRRPPRLPRPRPRPKEEPRP", "Escherichia coli TOP10", -0.00663],
  ["RRIRKRPPRLPRPRPRPLSQPRP", "Escherichia coli TOP10", 0.028],
  ["RRIRGRPPRLPRPRPRPMMKPRP", "Escherichia coli TOP10", 0.591],
  ["RRIRCRPPRLPRPRPRPVHPPRP", "Escherichia coli TOP10", -0.375],
  ["RRIRQRPPRLPRPRPRPKHIPRP", "Escherichia coli TOP10", -0.456],
  ["RRIRDRPPRLPRPRPRPQQIPRP", "Escherichia coli TOP10", -0.148],
  ["RRIRMRPPRLPRPRPRPNCFPRP", "Escherichia coli TOP10", 0.153],
  ["RRIRTRPPRLPRPRPRPWVAPRP", "Escherichia coli TOP10", -0.0456],
  ["RRIRRRPPRLPRPRPRPYQFPRP", "Escherichia coli TOP10", 0.0273],
  ["RRIRYRPPRLPRPRPRPDLWPRP", "Escherichia coli TOP10", -0.0329],
  ["RRIRPRPPRLPRPRPRPMFDPRP", "Escherichia coli TOP10", -0.231],
  ["RRIRWRPPRLPRPRPRPFLNPRP", "Escherichia coli TOP10", -0.425],
  ["RRIRARPPRLPRPRPRPKCWPRP", "Escherichia coli TOP10", 0.622],
  ["RRIRKRPPRLPRPRPRPRQPPRP", "Escherichia coli TOP10", 0.467],
  ["RRIRCRPPRLPRPRPRPFRIPRP", "Escherichia coli TOP10", -0.128],
  ["RRIRWRPPRLPRPRPRPPYRPRP", "Escherichia coli TOP10", 3.11],
  ["RRIRWRPPRLPRPRPRPKSAPRP", "Escherichia coli TOP10", 0.606],
  ["RRIRKRPPRLPRPRPRPHPNPRP", "Escherichia coli TOP10", 0.135],
  ["RRIRRRPPRLPRPRPRPKVLPRP", "Escherichia coli TOP10", 0.378],
  ["RRIRVRPPRLPRPRPRPCVNPRP", "Escherichia coli TOP10", 0.125],
  ["RRIRCRPPRLPRPRPRPDEYPRP", "Escherichia coli TOP10", -0.231],
  ["RRIRLRPPRLPRPRPRPIPRPRP", "Escherichia coli TOP10", 0.0727],
  ["RRIRRRPPRLPRPRPRPPDHPRP", "Escherichia coli TOP10", 0.762],
  ["RRIRYRPPRLPRPRPRPNWNPRP", "Escherichia coli TOP10", -1.09],
  ["RRIRRRPPRLPRPRPRPFDHPRP", "Escherichia coli TOP10", -0.242],
  ["RRIRLRPPRLPRPRPRPQLRPRP", "Escherichia coli TOP10", -0.00627],
  ["RRIRSRPPRLPRPRPRPDPDPRP", "Escherichia coli TOP10", -0.0414],
  ["RRIRMRPPRLPRPRPRPVVKPRP", "Escherichia coli TOP10", 0.189],
  ["RRIRVRPPRLPRPRPRPVVIPRP", "Escherichia coli TOP10", -0.401],
  ["RRIRSRPPRLPRPRPRPLHNPRP", "Escherichia coli TOP10", -0.198],
  ["RRIRLRPPRLPRPRPRPLMDPRP", "Escherichia coli TOP10", -0.0257],
  ["RRIRHRPPRLPRPRPRPHGCPRP", "Escherichia coli TOP10", -0.0438],
  ["RRIRWRPPRLPRPRPRPYMRPRP", "Escherichia coli TOP10", 0.0516],
  ["RRIRPRPPRLPRPRPRPHIIPRP", "Escherichia coli TOP10", -0.19],
  ["RRIRTRPPRLPRPRPRPMHPPRP", "Escherichia coli TOP10", 0.0402],
  ["RRIRNRPPRLPRPRPRPLGLPRP", "Escherichia coli TOP10", -0.0325],
  ["RRIRWRPPRLPRPRPRPVQNPRP", "Escherichia coli TOP10", 0.316],
  ["RRIRVRPPRLPRPRPRPNLNPRP", "Escherichia coli TOP10", -0.342],
  ["RRIRTRPPRLPRPRPRPFPHPRP", "Escherichia coli TOP10", -0.247],
  ["RRIRGRPPRLPRPRPRPPEVPRP", "Escherichia coli TOP10", 1.02],
  ["RRIRNRPPRLPRPRPRPWTWPRP", "Escherichia coli TOP10", -0.0415],
  ["RRIRGRPPRLPRPRPRPLCCPRP", "Escherichia coli TOP10", 0.829],
  ["RRIRDRPPRLPRPRPRPATTPRP", "Escherichia coli TOP10", 0.163],
  ["RRIRQRPPRLPRPRPRPESTPRP", "Escherichia coli TOP10", -0.0105],
  ["RRIRSRPPRLPRPRPRPELPPRP", "Escherichia coli TOP10", 0.0311],
  ["RRIRVRPPRLPRPRPRPQPRPRP", "Escherichia coli TOP10", 0.429],
  ["RRIRRRPPRLPRPRPRPYFWPRP", "Escherichia coli TOP10", 0.0638],
  ["RRIRPRPPRLPRPRPRPMAGPRP", "Escherichia coli TOP10", -0.13],
  ["RRIRFRPPRLPRPRPRPKPMPRP", "Escherichia coli TOP10", 0.521],
  ["RRIRQRPPRLPRPRPRPGPLPRP", "Escherichia coli TOP10", -0.035],
  ["RRIRNRPPRLPRPRPRPKYHPRP", "Escherichia coli TOP10", -0.442],
  ["RRIRGRPPRLPRPRPRPQFFPRP", "Escherichia coli TOP10", -0.0486],
  ["RRIRQRPPRLPRPRPRPHWPPRP", "Escherichia coli TOP10", -0.0715],
  ["RRIRCRPPRLPRPRPRPKDEPRP", "Escherichia coli TOP10", 0.393],
  ["RRIRRRPPRLPRPRPRPLHAPRP", "Escherichia coli TOP10", 1.06],
  ["RRIRTRPPRLPRPRPRPEWAPRP", "Escherichia coli TOP10", 0.213],
  ["RRIRIRPPRLPRPRPRPKGGPRP", "Escherichia coli TOP10", 0.04],
  ["RRIRHRPPRLPRPRPRPNMYPRP", "Escherichia coli TOP10", -0.963],
  ["RRIRKRPPRLPRPRPRPFAHPRP", "Escherichia coli TOP10", -0.00992],
  ["RRIRCRPPRLPRPRPRPQLRPRP", "Escherichia coli TOP10", -0.127]
]}
